All figures here come from patent US10053447B2.

# Assay info: Spectral properties of the dyes compared with commercially available dyes
# Format: physicochemical
# Test conditions: reactive ester form of the dye
Parameter Excitation (Ex): see the listing below.
Report the figure in nm without appending any unit label.

Compound	Assay result
COCCN1/C(=C/C=C/C=C/C2=[N+](CCCCCC(=O)Oc3c(F)c(F)cc(F)c3F)c3ccc(S(=O)(=O)[O-])cc3C2(C)CCCS(=O)(=O)O)C(C)(CCCS(=O)(=O)O)c2cc(S(=O)(=O)O)ccc21 (stereo not shown) [650 Compound 1-TFP]	654
COCCN1/C(=C/C=C/C=C/C=C/C2=[N+](CCCCCC(=O)ON3C(=O)CCC3=O)c3ccc(S(=O)(=O)[O-])cc3C2(C)CCCS(=O)(=O)O)C(C)(CCCS(=O)(=O)O)c2cc(S(=O)(=O)O)ccc21 (single isomer, unassigned) [755 Compound 1 (isomer 2)-NHS]	754
COCCN1/C(=C/C=C/C2=[N+](CCCCCC(=O)ON3C(=O)CCC3=O)c3ccc(S(=O)(=O)[O-])cc3C2(C)CCCS(=O)(=O)O)C(C)(CCCS(=O)(=O)O)c2cc(S(=O)(=O)O)ccc21 (stereo not shown) [550 Compound 1-NHS]	557

// next item, Excitation (Ex) requested
// returns reported Excitation (Ex) for input COCCN1/C(=C/C=C/C=C/C=C/C2=[N+](CCCCCC(=O)ON3C(=O)CCC3=O)c3ccc(S(=O)(=O)[O-])cc3C2(C)CCCS(=O)(=O)O)C(C)(CCCS(=O)(=O)O)c2cc(S(=O)(=O)O)ccc21 (single isomer, unassigned) [755 Compound 1 (isomer 1)-NHS]
754

====

Reported Purity at day 7 is given for each of the following molecules.
# Assay info: Storage stability at 50° C. under argon
# Format: physicochemical
# Test conditions: unit size 1 mg; 50° C. for seven days; purity based on ester activity
The reply should consist of the numeric value with the unit placed after it.

Example results:
Molecule	Recorded endpoint	Assay result
COCCN1/C(=C/C=C/C2=[N+](CCCCCC(=O)Oc3c(F)c(F)cc(F)c3F)c3ccc(S(=O)(=O)[O-])cc3C2(C)CCCS(=O)(=O)O)C(C)(CCCS(=O)(=O)O)c2cc(S(=O)(=O)O)ccc21 (single isomer, unassigned) [550 Compound 1 (isomer 1)-TFP]	Purity at day 7	96%
COCCN1/C(=C/C=C/C2=[N+](CCCCCC(=O)ON3C(=O)CCC3=O)c3ccc(S(=O)(=O)[O-])cc3C2(C)CCCS(=O)(=O)O)C(C)(CCCS(=O)(=O)O)c2cc(S(=O)(=O)O)ccc21 (single isomer, unassigned) [550 Compound 1 (isomer 1)-NHS]	Purity at day 7	93%
COCCN1/C(=C/C=C/C2=[N+](CCCCCC(=O)NCCN3C(=O)C=CC3=O)c3ccc(S(=O)(=O)[O-])cc3C2(C)CCCS(=O)(=O)O)C(C)(CCCS(=O)(=O)O)c2cc(S(=O)(=O)O)ccc21 (single isomer, unassigned) [550 Compound 1(isomer 1)-maleimide]	Purity at day 7	97%

Pending molecule:
Quick one: Purity at day 7 for COCCN1/C(=C/C=C/C2=[N+](CCCCCC(=O)NCCN3C(=O)C=CC3=O)c3ccc(S(=O)(=O)[O-])cc3C2(C)CCCS(=O)(=O)O)C(C)(CCCS(=O)(=O)O)c2cc(S(=O)(=O)O)ccc21 (single isomer, unassigned) [550 Compound 1(isomer 2)-maleimide] ?
97%
